Origin of measurements: patent US7244727B2

ATTRIBUTE_MEASURED: melting point

Examples from the recorded data:
> print(dat)
                                   compound  attribute.measured         result
1            CCc1ccc(C2=Nc3c(N)ncnc3OC2)cc1       melting point  191 to 193 °C
2  CCCNC(=O)N1CCN(C[C@H]2CC[C@H](c3ccc(C4=Nc5c(N)ncnc5OC4(C)C)cc3)CC2)CC1       melting point  180 to 182 °C
3  CC1(C)Oc2ncnc(N)c2N=C1c1ccc([C@H]2CC[C@H](Cc3nc4cc(Cl)ccc4[nH]3)CC2)cc1       melting point       > 230 °C

Request: Please supply the value of reported melting point for the item Cc1nc(N)c2c(n1)OC(C)(C)C(c1ccc([C@H]3CC[C@H](CC(=O)O)CC3)cc1)=N2
Response: > 250 °C

Request: Please supply the value of reported melting point for the item CC1(C)Oc2ncnc(N)c2N=C1c1ccc([C@H]2CC[C@H](Cc3nc4ccccc4[nH]3)CC2)cc1
Response: > 230 °C

Request: Please supply the value of reported melting point for the item CC1(C)Oc2nc(C(F)(F)F)nc(N)c2N=C1c1ccc([C@H]2CC[C@H](CN3CCOC3=O)CC2)c(Cl)c1
Response: > 250 °C

Request: Please supply the value of reported melting point for the item CC(C)c1ccc(C2=Nc3c(N)ncnc3OC2(C)C)cc1
Response: 175 to 179 °C

Request: Please supply the value of reported melting point for the item CC1(C)Oc2ncnc(N)c2N=C1c1ccc(C2CCC(=CC(=O)NCc3ccccc3)CC2)cc1 (stereo not shown)
Response: 142 to 144 °C
